Tested on: T-47D breast
Experiment: NCI-60 one-dose screen, 48 h
Settings: 10 µM unless noted
This is part of a sample that, as a whole, favours compounds with a hit. Of some 83,000 tested, about 20% had one in any assay. Calls of active or inactive are those of the source. Rule for the calls: active = growth percent below 10; inactive = the rest.
Write down the outcome that applies. Available outcomes: active, inactive

Check out these entries, answers already filled in.
compound=CN1C(=O)C(=Cc2coc3ccc(Br)cc3c2=O)C(=O)N(C)C1=O cat=inactive
compound=O=c1[nH]c2cc(O)ccc2n2cc3c(F)cccc3c12 cat=inactive
compound=O=S(=O)(O)c1ccc2c(c1)Sc1cc(S(=O)(=O)O)ccc1O2 cat=inactive
compound=CCCCCCC(=O)C(C)C cat=inactive
compound=CC(=O)c1ccc2c(c1)c1ccccc1n2C cat=inactive
compound="N#CC1=C(N2CCOCC2)NC2c3ccccc3Sc3ccccc3N2C1=N (stereo unspecified)" cat=inactive
compound="COC(=O)C(C)[C@H]1CC[C@@H]2[C@]1(C)CC=C1[C@]23C=C[C@]2(C[C@@H](OC(C)=O)CC[C@]12C)C(C(=O)OC)C3C(=O)OC (stereo partly specified)" cat=inactive
compound=O=C1/C(=C/c2ccc(Cl)cc2)CCC/C1=C\c1ccc(Cl)cc1 cat=inactive

Could you now look at the following compound, please?
Hi team, can someone confirm the assay call for `COc1ccc(/C=C(/C(=O)N2CCCCC2)c2cc(OC)c(OC)c(OC)c2)cc1` ?
inactive
